Attribution: the supplement of paper PMC10307832

- System: NCI-H1395
- Procedure Details: relative viability (nuclei count vs DMSO), 5 days (fraction); higher = more cells survive
- Test Settings: first compound 1 µM
So I've got a bunch of compounds here, and I need their relative viability values.
Kindly provide the number alone.

The recorded relative viability for NC(=O)Nc1cc(-c2cccc(F)c2)sc1C(=O)N[C@H]1CCCNC1 [AZD7762] + CCNC(=O)c1noc(-c2cc(C(C)C)c(O)cc2O)c1-c1ccc(CN2CCOCC2)cc1 [Luminespib] (partner 0.01 µM) is 0.341

The recorded relative viability for NC(=O)Nc1cc(-c2cccc(F)c2)sc1C(=O)N[C@H]1CCCNC1 [AZD7762] + CS(=O)(=O)N1CCN(Cc2cc3nc(-c4cccc5[nH]ncc45)nc(N4CCOCC4)c3s2)CC1 [Pictilisib] (partner 1 µM) is 0.403

The recorded relative viability for NC(=O)Nc1cc(-c2cccc(F)c2)sc1C(=O)N[C@H]1CCCNC1 [AZD7762] + COc1cccc2cc(-c3nc([C@H]4CC[C@H](C(=O)O)CC4)n4ncnc(N)c34)[nH]c12 [OSI-027] (partner 0.5 µM) is 0.363

The recorded relative viability for NC(=O)Nc1cc(-c2cccc(F)c2)sc1C(=O)N[C@H]1CCCNC1 [AZD7762] + Nc1ncn([C@H]2C[C@H](O)[C@@H](CO)O2)c(=O)n1 [Decitabine] (partner 2 µM) is 0.354

The recorded relative viability for NC(=O)Nc1cc(-c2cccc(F)c2)sc1C(=O)N[C@H]1CCCNC1 [AZD7762] + CS(=O)(=O)CCNCc1ccc(-c2ccc3ncnc(Nc4ccc(OCc5cccc(F)c5)c(Cl)c4)c3c2)o1 [Lapatinib] (partner 2 µM) is 0.362

The recorded relative viability for NC(=O)Nc1cc(-c2cccc(F)c2)sc1C(=O)N[C@H]1CCCNC1 [AZD7762] + CC(=O)Nc1cccc(-n2c(=O)n(C3CC3)c(=O)c3c(Nc4ccc(I)cc4F)n(C)c(=O)c(C)c32)c1 [Trametinib] (partner 0.02 µM) is 0.368

The recorded relative viability for NC(=O)Nc1cc(-c2cccc(F)c2)sc1C(=O)N[C@H]1CCCNC1 [AZD7762] + CC(=O)c1c(C)c2cnc(Nc3ccc(N4CCNCC4)cn3)nc2n(C2CCCC2)c1=O [Palbociclib] (partner 0.5 µM) is 0.363

The recorded relative viability for NC(=O)Nc1cc(-c2cccc(F)c2)sc1C(=O)N[C@H]1CCCNC1 [AZD7762] + Nc1nc2[nH]cc(CCc3ccc(C(=O)N[C@@H](CCC(=O)O)C(=O)O)cc3)c2c(=O)[nH]1 [Pemetrexed] (partner 0.2 µM) is 0.306

---

- Test system: NCI-H1944
- Procedure Details: relative viability (nuclei count vs DMSO), 5 days (fraction); higher = more cells survive
- Test Settings: first compound 2.53 µM
Measured Metric: relative viability

The recorded relative viability for Oc1nc(-c2ccc(C(F)(F)F)cc2)nc2c1CSCC2 [XAV939] + O=C(CCCCCCC(=O)Nc1ccccc1)NO [Vorinostat] (partner 1 µM) is 0.354

The recorded relative viability for Oc1nc(-c2ccc(C(F)(F)F)cc2)nc2c1CSCC2 [XAV939] + C[C@@H](Oc1cc(-c2cnn(C3CCNCC3)c2)cnc1N)c1c(Cl)ccc(F)c1Cl [Crizotinib] (partner 1 µM) is 0.959

The recorded relative viability for Oc1nc(-c2ccc(C(F)(F)F)cc2)nc2c1CSCC2 [XAV939] + CC(=O)c1c(C)c2cnc(Nc3ccc(N4CCNCC4)cn3)nc2n(C2CCCC2)c1=O [Palbociclib] (partner 0.5 µM) is 0.267
